# procedure-details: qHTS assay to identify small molecule antagonists of the sonic hedgehog signaling (Shh) pathway (AID 1259369); also: nearly all actives have a fitted effect of over 45% in size
# experimental-parameters: NIH/3T3 Gli1-Luc reporter, Shh antagonist, luminescence 24 h; series mostly up to 92.4 µM
Inconclusive results are not listed. Activity calls are given as the source filed them. Calls follow the shape of the full dose curve.
Outcomes you can answer with include only these: yes (1) (active), no (0) (inactive)

-- ask Dear colleague, could you share the recorded outcome for "CCCCCCCC(=O)Oc1c(Br)cc(C#N)cc1Br" when you have a moment?
-- reply yes (1)

---

# procedure-details: qHTS assay to identify small molecule antagonists of the estrogen related receptor signaling pathway with the pleiotropic PPARgamma coactivator (PGC) cell viability counter screen (AID 1224822;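 also: viability read after 17.5 h compound exposure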)
# experimental-parameters: ERR/PGC reporter cell line viability counter screen; series mostly up to 46.1 µM
Results filed as inconclusive are left out. Activity calls are given as the source filed them. Calls come from the whole dose curve; as a rule, active = well fitted cell-killing curve with a large enough effect in the repeat runs; inconclusive = weak or mixed curves, or effect the other way; inactive = flat fitted curve, though single readings scatter.
measured-attribute: outcome

Examples with answers:
[
  {
    "molecule": "CC(=O)OC(C)C[N+](C)(C)C (stereo not given)",
    "outcome": "inactive"
  },
  {
    "molecule": "CC12CC3CC(C)(C1)CC(N)(C3)C2",
    "outcome": "inactive"
  },
  {
    "molecule": "CC(=O)C(C)=O",
    "outcome": "inactive"
  },
  {
    "molecule": "Nc1nc2ccc(OC(F)(F)F)cc2s1",
    "outcome": "inactive"
  }
]

Now take the following molecule into account.
-- ask Would you mind telling me what outcome value was observed for "O=C(O)/C=C/c1ccc(O)c(O)c1" ?
-- reply inactive

---

# procedure-details: qHTS assay to identify small molecule antagonists of the sonic hedgehog signaling (Shh) pathway - cell viability counter screen (AID 1259367); also: nearly all actives have a fitted effect of over 55% in size
# experimental-parameters: NIH/3T3 Gli1-Luc viability, CellTiter-Fluor, 24 h; series mostly up to 92.4 µM
Inconclusive results are not listed. Calls of active or inactive are those of the source. Calls follow the shape of the dose curve; as a rule, active = well fitted cell-killing curve with a large enough effect in the repeat runs; inconclusive = weak or mixed curves, or effect the other way; inactive = no such curve, though single readings can be large or run the other way.
measured-attribute: outcome

[
  {
    "compound": "CC(C)CC(O)CC(C)C",
    "outcome": "inactive"
  },
  {
    "compound": "CCOCCC(=O)OCC",
    "outcome": "inactive"
  },
  {
    "compound": "CCO[Si](C)(CCCOCC1CO1)OCC (stereo not drawn)",
    "outcome": "inactive"
  },
  {
    "compound": "CC(C)N(C)C",
    "outcome": "inactive"
  },
  {
    "compound": "COC(OC)OC",
    "outcome": "inactive"
  },
  {
    "compound": "CNCc1ccc(NC(=O)c2c[nH]c3c2C(=O)CCC3)cc1",
    "outcome": "inactive"
  },
  {
    "compound": "CC/C=C\\C/C=C\\C/C=C\\CCCCCCCC(=O)OCC",
    "outcome": "inactive"
  },
  {
    "compound": "COc1ccc(-c2cc(C(F)F)nn2-c2ccc(S(N)(=O)=O)cc2)cc1F",
    "outcome": "inactive"
  },
  {
    "compound": "CCOC(=O)Oc1ccc(CCNC(=O)[C@H](CCSC)NC(C)=O)cc1OC(=O)OCC",
    "outcome": "inactive"
  },
  {
    "compound": "COc1cc(C(C)=O)ccc1OCCCN1CCC(c2noc3cc(F)ccc23)CC1",
    "outcome": "inactive"
  }
]

-- ask # outcome lookup, item "Cc1cc(CCCOc2c(C)cc(-c3noc(C(F)(F)F)n3)cc2C)on1"
-- reply inactive

-- ask Same again, this time with CC(C(=O)O)c1ccc(C(=O)c2cccs2)cc1 (stereo not drawn)
-- reply inactive

-- ask Lookup "Nc1ccc(S(=O)(=O)NCc2ccccc2)cc1"
-- reply inactive

---

# procedure-details: qHTS assay to identify small molecule antagonists of the sonic hedgehog signaling (Shh) pathway - cell viability counter screen (AID 1259367); also: nearly all actives have a fitted effect of over 55% in size
# experimental-parameters: NIH/3T3 Gli1-Luc viability, CellTiter-Fluor, 24 h; series mostly up to 92.4 µM
Records with an inconclusive call do not appear. The source made the active and inactive calls. Calls come from the whole dose curve; as a rule, active = well fitted cell-killing curve with a large enough effect in the repeat runs; inconclusive = weak or mixed curves, or effect the other way; inactive = no such curve, though single readings can be large or run the other way.
Pick from TRUE for active, FALSE for inactive when you respond.

[
  {
    "compound": "O=C(c1ccccc1)C1CCC1",
    "qualitative-label": "FALSE"
  },
  {
    "compound": "CCCCCCCCCCCSCC(=O)O",
    "qualitative-label": "FALSE"
  },
  {
    "compound": "Cc1cccc(C)c1NC(=O)c1cc(S(N)(=O)=O)c(Cl)cc1O",
    "qualitative-label": "FALSE"
  },
  {
    "compound": "O=C(O)c1cc(Cl)cc(Cl)c1O",
    "qualitative-label": "FALSE"
  },
  {
    "compound": "C=CCOC(=O)COCCC(C)C",
    "qualitative-label": "FALSE"
  },
  {
    "compound": "CCC1CCC(CCC(=O)O)C1 (stereo not drawn)",
    "qualitative-label": "FALSE"
  },
  {
    "compound": "O=C1OC[C@H](Cc2cccc(O)c2)[C@H]1Cc1cccc(O)c1",
    "qualitative-label": "FALSE"
  },
  {
    "compound": "CC(=O)C(=O)CC(C)C",
    "qualitative-label": "FALSE"
  },
  {
    "compound": "CCN(CC)c1ccc(C(=C2C=CC(=[N+](CC)CC)C=C2)c2ccc(S(=O)(=O)O)cc2S(=O)(=O)[O-])cc1",
    "qualitative-label": "TRUE"
  },
  {
    "compound": "CC(CCc1ccc(O)cc1)NCCc1ccc(O)c(O)c1 (stereo not drawn)",
    "qualitative-label": "FALSE"
  }
]

-- ask What was the test verdict on "CC(=O)OCCC1CCCCC1" ?
-- reply FALSE

-- ask Now try CN1C(CSCC(F)(F)F)Nc2cc(Cl)c(S(N)(=O)=O)cc2S1(=O)=O (stereo not drawn) .
-- reply FALSE

-- ask Follow-up entry: "CCN(CC)CC(=O)Nc1c(C)cccc1C(=O)OC"
-- reply FALSE

-- ask Moving on to CC(C)(C)C1(CCc2ccc(Cl)cc2)CO1 (stereo not drawn)
-- reply FALSE

-- ask Request: "O=C(O)c1cccc(Oc2ccccc2)c1"
-- reply FALSE

-- ask Same again, this time with CC1CCCO1 (stereo not drawn)
-- reply FALSE

-- ask Also need "CC(C)(C)CCCCCCOC(=O)c1ccccc1C(=O)OCCCCCCC(C)(C)C" , thanks.
-- reply FALSE

-- ask Another compound: "CCC(C)(C)C(=O)O"
-- reply FALSE

-- ask Proceed to "C=C(C)c1ccccc1"
-- reply FALSE

-- ask Now give it for CNC1CCCN(c2c(F)cc3c(=O)c(C(=O)O)cn(C4CC4)c3c2OC)C1 (stereo not drawn) too.
-- reply FALSE

-- ask Entry "Nc1nc(-c2ccc([N+](=O)[O-])cc2)cs1" please
-- reply FALSE

-- ask // query: CC(C)C1CCC(C(=O)N[C@H](Cc2ccccc2)C(=O)O)CC1 (stereo partly drawn)
-- reply FALSE

-- ask Now consider "C[C@@H]1C[C@H]2[C@@H]3CCC4=CC(=O)C=C[C@]4(C)[C@@]3(F)[C@@H](O)C[C@]2(C)[C@@]1(O)C(=O)COP(=O)(O)O" .
-- reply FALSE

-- ask Moving on to the next compound: "FC(F)(F)C(F)(F)C(F)(F)C(F)(F)CCI"
-- reply FALSE

-- ask Now give it for "COc1ccc(/C=C/C(=O)c2ccc(OC)cc2OC)cc1" too.
-- reply FALSE

---

# procedure-details: qHTS assay to identify small molecule antagonists of the estrogen related receptor signaling pathway with the pleiotropic PPARgamma coactivator (PGC) from Tox21 10K library (AID 1224841); also: actives are mostly falling curves and most rising ones were filed inactive; nearly all actives have a fitted effect of over 50% in size
# experimental-parameters: PGC/ERR reporter cell line, ONE-Glo luciferase, 18 h; series mostly up to 92.4 µM
# From the text: U.S. Tox21 Program National Center for Advancing Translational Sciences [NCATS] NIH Chemical Genomics Center [NCGC] U.S. Environmental Protection Agency [EPA] National Institutes of Environmental Health Sciences [NIEHS] National Toxicology Program [NTP] U.S. Food and Drug Administration [FDA] Tox21 Assay Overview: Estrogen related receptors (ERRs), the first orphan nuclear receptors discovered, play an important role in the control of cellular energy metabolism. […]
Inconclusive results are not listed. Active and inactive are the calls of the source. How the calls were made is not given here.
Select the matching outcome among active, inactive

[
  {
    "compound": "O=C(c1ccccc1)c1ccc(O)cc1",
    "qualitative-label": "inactive"
  },
  {
    "compound": "Nc1ccc(NC(=O)c2ccc(N)cc2)cc1",
    "qualitative-label": "inactive"
  }
]

Now examine the next entry.
-- ask Which outcome was assigned to "C=CC(=O)NC(C)C" in this test?
-- reply inactive

---

# procedure-details: qHTS assay for identifying genotoxic compounds that show differential cytotoxicity against isogenic chicken DT40 cell lines with known DNA damage response pathways - Rad54/Ku70 mutant cell line (AID 743015); also: nearly all actives have a fitted effect of over 60% in size
# experimental-parameters: DT40 Rad54/Ku70 mutant viability, CellTiter-Glo, 40 h; series mostly up to 66.8 µM
Records with an inconclusive call do not appear. Active and inactive are the calls of the source. The call rests on the fitted dose curve; in most records, active means well fitted cell-killing curve with a large enough effect in the repeat runs; inconclusive means weak or mixed curves; inactive means no such curve, though single readings can be large or run the other way.
Please reply with one of these outcomes: active, inactive

Example results:
[
  {
    "smiles-record": "CC[C@H]1OC(=O)[C@H](C)[C@@H](O[C@H]2C[C@@](C)(OC)[C@@H](O)[C@H](C)O2)[C@H](C)[C@@H](O[C@@H]2O[C@H](C)C[C@H](N(C)C)[C@H]2O)[C@](C)(O)C[C@@H](C)C(=O)[C@H](C)[C@@H](O)[C@]1(C)O",
    "qualitative-label": "inactive"
  },
  {
    "smiles-record": "CCCC(=O)OC(=O)CCC",
    "qualitative-label": "inactive"
  },
  {
    "smiles-record": "COc1ccc(/C=C/C(=O)c2ccc(OC)cc2OC)cc1",
    "qualitative-label": "active"
  },
  {
    "smiles-record": "Cc1cc([N+](=O)[O-])ccc1N",
    "qualitative-label": "inactive"
  }
]

Turning now to a further record.
-- ask Please share the test call associated with "C=C(C)c1ccccc1" .
-- reply inactive
